# protocol summary: Plasma and tumor tissue concentrations following oral administration in VCaP xenograft model (HPLC/MS/MS)
# Type: in vivo, mice
# condition details: mouse, plasma, 10 mg/kg orally once daily for 3 days, 24 hours after the last administration, read-out: Concentration in Plasma
recorded endpoint: concentration at 24 h (ng/mL)
Give just the numeric value; ng/mL need not be written.

Per the records, this molecule ( N#Cc1ccc(N2CCC(C(=O)Nc3ccc(OC4CCN(CC5CCN(c6ccc(N[C@H]7CCC(=O)NC7=O)cc6F)CC5)CC4)cn3)CC2)cc1C(F)(F)F [Example 2] ) has concentration at 24 h equal to 51

----------
Exercise: state measured Dmax at 0.1 µM for each of the compounds provided.
# subject of test: Androgen Receptor (AR) (Homo sapiens, UniProt P10275, T878A)
# Construct: endogenous in cells; host or cells: LNCaP
# Sequence (P10275 1-920 T878A): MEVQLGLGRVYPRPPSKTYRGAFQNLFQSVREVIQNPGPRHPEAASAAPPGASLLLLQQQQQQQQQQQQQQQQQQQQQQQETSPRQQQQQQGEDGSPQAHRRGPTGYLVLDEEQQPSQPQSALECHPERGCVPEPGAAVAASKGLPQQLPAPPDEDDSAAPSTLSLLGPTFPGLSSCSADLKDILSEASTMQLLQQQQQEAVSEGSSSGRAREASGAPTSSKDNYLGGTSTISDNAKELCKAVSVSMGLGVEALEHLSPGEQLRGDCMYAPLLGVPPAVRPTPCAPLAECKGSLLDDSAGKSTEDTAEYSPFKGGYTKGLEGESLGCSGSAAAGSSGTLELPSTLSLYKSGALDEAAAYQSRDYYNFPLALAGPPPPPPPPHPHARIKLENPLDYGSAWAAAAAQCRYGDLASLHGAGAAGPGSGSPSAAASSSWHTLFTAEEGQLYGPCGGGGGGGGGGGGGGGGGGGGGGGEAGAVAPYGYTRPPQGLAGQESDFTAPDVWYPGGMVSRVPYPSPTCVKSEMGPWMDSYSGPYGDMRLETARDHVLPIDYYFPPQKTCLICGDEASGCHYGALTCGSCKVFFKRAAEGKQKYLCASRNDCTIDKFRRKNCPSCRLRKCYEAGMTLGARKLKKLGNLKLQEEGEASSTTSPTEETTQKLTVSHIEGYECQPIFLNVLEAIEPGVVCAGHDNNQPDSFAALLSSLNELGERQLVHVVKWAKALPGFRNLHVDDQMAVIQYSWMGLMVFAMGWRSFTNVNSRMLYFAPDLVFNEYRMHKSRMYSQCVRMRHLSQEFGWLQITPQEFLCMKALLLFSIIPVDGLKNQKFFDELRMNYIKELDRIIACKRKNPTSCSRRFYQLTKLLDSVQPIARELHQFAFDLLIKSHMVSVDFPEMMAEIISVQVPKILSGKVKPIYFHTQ
# protocol summary: Measurement of AR protein degradation in LNCaP cells by Western blotting
# Assay type: cell-based
# condition details: LNCaP, 20 h, read-out: AR degradation in LNCaP cells (%)
Write the answer as a number in %, unit excluded.

Note to self: Dmax at 0.1 µM recorded for N#Cc1ccc(N2CCC(C(=O)Nc3ccc(OC4CCN(CC5CCN(c6ccc(NC7CCC(=O)NC7=O)cc6C(F)(F)F)CC5)CC4)cn3)CC2)cc1C(F)(F)F (stereo not drawn) [Example 18] was 98

Lab note: N#Cc1ccc(N2CCC(C(=O)Nc3ccc(OC4CCN(CC5CCN(c6ccc(NC7CCC(=O)NC7=O)cc6Cl)CC5)CC4)cn3)CC2)cc1C(F)(F)F (stereo not drawn) [Example 17] gave Dmax at 0.1 µM of 99

The recorded Dmax at 0.1 µM for entry N#Cc1ccc(N2CCC(C(=O)Nc3ccc(OC4CCN(CC5CCN(c6ccc(NC7CCC(=O)NC7=O)cc6F)CC5)CC4)cn3)CC2)c(F)c1Cl (stereo not drawn) [Example 12] equals 96

For N#Cc1ccc(N2CCC(C(=O)Nc3ccc(OC4CCN(CC5CCN(c6ccc(NC7CCC(=O)NC7=O)cc6F)CC5)CC4)nn3)CC2)c(F)c1Cl (stereo not drawn) [Example 15] the compound record lists Dmax at 0.1 µM as 90

The compound N#Cc1ccc(N2CCC(C(=O)Nc3ccc(OC4CCN(CC5CCN(c6ccc(N[C@H]7CCC(=O)NC7=O)cc6F)CC5)CC4)cn3)CC2)cc1C(F)(F)F [Example 2] showed Dmax at 0.1 µM equal to 99

Entry N#Cc1ccc(N2CCC(C(=O)Nc3ccc(OC4CCN(CC5CCN(c6ccc(N[C@@H]7CCC(=O)NC7=O)cc6F)CC5)CC4)cn3)CC2)cc1C(F)(F)F [Example 3] ; Dmax at 0.1 µM = 99
